Ref: patent US20220041746A1

EXPERIMENTAL_SYSTEM: T1, cCD38-his (SEQ ID NO: 4) (cynomolgus monkey, UniProt Q5VAN0 46-301)
T1 construct: His-tagged soluble protein; also called cyno CD38-histag; cynoCD38::Histag
RUN_DESCRIPTION: SPR, mAb captured via anti-human Fc, soluble CD38-his injected
Lab note - cut at 0.6 nM for Kd: class 1 if strictly below, class 0 if not.

Study these solved cases before continuing.
mAb2 (antibody, human IgG1, kappa, V domains shown, also called antiCD38_C2-CD38-1_VH1-VL1; CD38VH1) VH: QVQLVQSGAEVVKPGASVKVSCKASGYTFTSYAMHWVKEAPGQRLEWIGYIYPGQGGTNYNQKFQGRATLTADTSASTAYMELSSLRSEDTAVYFCARTGGLRRAYFTYWGQGTLVTVSS VL: DIVLTQSPATLSLSPGERATISCRASQSVSSYGQGFMHWYQQKPGQPPRLLIYGASSRATGIPARFSGSGSGTDFTLTISPLEPEDFAVYYCQQNKEDPWTFGGGTKLEIKR    class 0
mAb5 (antibody, human IgG1, kappa, V domains shown, also called antiCD38_C2-CD38-1_VH6-VL3) VH: QVQLVQSGAEVVKPGASVKMSCKASGYTFTSFNMHWVKEAPGQRLEWIGYIYPGNGGTNYNQKFQGRATLTADTSASTAYMEISSLRSEDTAVYFCARTGGLRRAYFTYWGQGTLVTVSS VL: DIVLTQSPATLSLSPGERATISCRASESVDSYGNGFMHWYQQKPGQPPRLLIYLASSRATGIPARFSGSGSGTDFTLTISPLEPEDFAVYYCQQNKEDPWTFGGGTKLEIKR    class 1
mAb1 (antibody, human IgG1, kappa, V domains shown, also called antiCD38_C2-CD38-1) VH: QVQLQQSGAELVRSGASVKMSCKASGYTFTSFNMHWVKETPGQGLEWIGYIYPGNGGTNYNQKFKGKATLTADTSSSTAYMQISSLTSEDSAVYFCARTGGLRRAYFTYWGQGTLVTVSS VL: DIVLTQSPASLAVSLGQRATISCRASESVDSYGNGFMHWYQQKPGQPPKLLIYLASNLESGVPARFSGSGSRTDFTLTIDPVEADDAATYYCQQNKEDPWTFGGGTKLEIKR    class 1
mAb3 (antibody, human IgG1, kappa, V domains shown, also called antiCD38_C2-CD38-1_VH3-VL3) VH: QVQLVQSGAEVVKPGASVKVSCKASGYTFTSFNMHWVKEAPGQRLEWIGYIYPGNGGTNYNQKFQGRATLTADTSASTAYMELSSLRSEDTAVYFCARTGGLRRAYFTYWGQGTLVTVSS VL: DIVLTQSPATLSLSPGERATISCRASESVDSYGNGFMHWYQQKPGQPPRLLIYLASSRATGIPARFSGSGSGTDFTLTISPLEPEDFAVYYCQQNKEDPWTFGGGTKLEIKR    class 0

Could you now look at the following binder, please?
Q: Dear reviewer, please state whether mAb4 (antibody, human IgG1, kappa, V domains shown, also called antiCD38_C2-CD38-1_VH5-VL3) VH: QVQLVQSGAEVVKSGASVKVSCKASGYTFTSFNMHWVKEAPGQGLEWIGYIYPGNGGTNYNQKFQGRATLTADTSASTAYMEISSLRSEDTAVYFCARTGGLRRAYFTYWGQGTLVTVSS VL: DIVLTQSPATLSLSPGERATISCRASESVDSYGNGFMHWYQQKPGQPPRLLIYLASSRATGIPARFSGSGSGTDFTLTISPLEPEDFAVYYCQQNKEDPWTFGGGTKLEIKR has Kd strictly beneath 0.6 nM.
Result: class 0
